Taken from ChEMBL document CHEMBL4261650.

# assay name: AUC in rat at 1 mg/kg, iv co-administered with CYP450 inhibitor ABT by LC-MS/MS analysis
# Type: ADME, organism-based
# test parameters: in vivo

smiles input	AUC [ng·h/mL]
N#CN[C@H]1CCc2ccc(-c3ncnc4[nH]ccc34)cc21	488

---

# assay name: Oral bioavailability in rat at 3 mg/kg administered as single dose by LC-MS/MS analysis
# Assay type: ADME, organism-based
# test parameters: in vivo
reported endpoint: bioavailability (%)

smiles input	reported endpoint	endpoint result
N#CN[C@H]1CCc2ccc(-c3ncnc4[nH]ccc34)cc21	bioavailability	16

---

# assay name: GSH reactivity in phosphate buffer assessed as half life at 20 uM after 1 hr in presence of L-glutathione by LC-MS/MS analysis
# Type: physicochemical
# test parameters: phosphate buffer with L-glutathione

compound	half-life at 20 µM [h]
COCCc1c[nH]c2ncnc(-c3ccc4c(c3)C(NC#N)CC4)c12 (stereo not given)	1.23
COc1ccc(S(=O)(=O)N[C@@H]2C[C@H](NC#N)c3cc(-c4ncnc5[nH]ccc45)ccc32)cc1	0.583
C=CC(=O)N1CCOc2ccc(-c3ncnc4[nH]cc(CCOC)c34)cc21	0.05
C[C@@H]1Cc2ccc(-c3ncnc4[nH]ccc34)cc2[C@@H]1NC#N	1.58
N#CN[C@H]1CCc2ccc(-c3ncnc4[nH]ccc34)cc21	1.15
N#CNC1CCc2ccc(-c3ncnc4[nH]ccc34)cc21 (stereo not given)	1.12
N#CN[C@@H]1c2cc(-c3ncnc4[nH]ccc34)ccc2C[C@H]1O	0.783
N#CN[C@H]1CCc2ccc(-c3ncnc4[nH]cc(-c5cccc(CO)c5)c34)cc21	1.15
N#CNC1CCOc2ccc(-c3ncnc4[nH]ccc34)cc21 (stereo not given)	0.6
COCCS(=O)(=O)N[C@@H]1C[C@H](NC#N)c2cc(-c3ncnc4[nH]ccc34)ccc21	1.17

---

# assay name: Half life in rat at 1 mg/kg, iv administered as single dose by LC-MS/MS analysis
# Type: ADME, organism-based
# test parameters: in vivo

smiles input	half-life
N#CN[C@H]1CCc2ccc(-c3ncnc4[nH]ccc34)cc21	16.2 min

---

# assay name: Half life in rat whole blood
# Type: ADME, tissue-based
reported endpoint: half-life (min)

smiles input	reported endpoint	unit string	qualifying sign	endpoint result
C=CC(=O)Nc1cccc(-c2ncnc3[nH]cc(CCOC)c23)c1	half-life	min	=	29
N#CN[C@H]1C[C@@H](O)c2ccc(-c3ncnc4[nH]ccc34)cc21	half-life	min	=	20
C=CC(=O)N1CCOc2ccc(-c3ncnc4[nH]cc(CCOC)c34)cc21	half-life	min	=	4
N#CN[C@H]1CCc2ccc(-c3ncnc4[nH]ccc34)cc21	half-life	min	=	150
C[C@]1(NC#N)CCc2ccc(-c3ncnc4[nH]ccc34)cc21	half-life	min	>	360
N#CN[C@H]1CCc2ccc(-c3ncnc4[nH]cc(-c5cccc(CO)c5)c34)cc21	half-life	min	=	59
CS(=O)(=O)N[C@@H]1C[C@H](NC#N)c2cc(-c3ncnc4[nH]ccc34)ccc21	half-life	min	=	31
N#CN[C@H]1CCc2ccc(-c3ncnc4[nH]cc(-c5ccccc5)c34)cc21	half-life	min	=	61

---

# assay name: AUC in rat at 1 mg/kg, iv administered as single dose by LC-MS/MS analysis
# Assay type: ADME, organism-based
# test parameters: in vivo
reported endpoint: AUC (ng·h/mL)

smiles input	unit string	endpoint result
N#CN[C@H]1CCc2ccc(-c3ncnc4[nH]ccc34)cc21	ng·h/mL	466

---

# assay name: Half life in human whole blood
# Format: ADME, tissue-based

smiles input	qualifying sign	half-life (h)
C=CC(=O)N1CCOc2ccc(-c3ncnc4[nH]cc(CCOC)c34)cc21	=	0.0833
N#CN[C@H]1C[C@@H](O)c2ccc(-c3ncnc4[nH]ccc34)cc21	=	5.65
C[C@]1(NC#N)CCc2ccc(-c3ncnc4[nH]ccc34)cc21	>	6
N#CN[C@H]1CCc2ccc(-c3ncnc4[nH]cc(-c5cccc(CO)c5)c34)cc21	=	0.8
N#CN[C@H]1CCc2ccc(-c3ncnc4[nH]cc(-c5ccccc5)c34)cc21	=	1.02
N#CN[C@H]1CCc2ccc(-c3ncnc4[nH]ccc34)cc21	>	6
C=CC(=O)Nc1cccc(-c2ncnc3[nH]cc(CCOC)c23)c1	=	2.47
CS(=O)(=O)N[C@@H]1C[C@H](NC#N)c2cc(-c3ncnc4[nH]ccc34)ccc21	=	3.47

---

half-life at 20 µM by entry:
# assay name: GSH reactivity in phosphate buffer assessed as half life at 20 uM after 1 hr in presence of L-glutathione by LC-MS/MS analysis
# Assay type: physicochemical
# test parameters: phosphate buffer with L-glutathione
reported endpoint: half-life at 20 µM

compound	reported endpoint	endpoint result
COCCc1c[nH]c2ncnc(-c3ccc4c(c3)N(C#N)CC(F)(F)O4)c12	half-life at 20 µM	> 2 h
C[C@@]1(NC#N)CCc2ccc(-c3ncnc4[nH]ccc34)cc21	half-life at 20 µM	> 2 h
CC1(NC#N)CCc2ccc(-c3ncnc4[nH]ccc34)cc21 (stereo not drawn)	half-life at 20 µM	> 2 h

---

# assay name: Apparent permeability across apical to basolateral side in RRCK cells after […] by HPLC analysis
# Assay type: ADME, cell-based, Canis lupus familiaris, MDCKII-LE
# test parameters: dog, MDCK
reported endpoint: Papp A→B at […]

smiles input	endpoint result
CS(=O)(=O)N[C@@H]1C[C@H](NC#N)c2cc(-c3ncnc4[nH]ccc34)ccc21	< 1 ×10⁻⁶ cm/s
C=CC(=O)Nc1cccc(-c2ncnc3[nH]cc(CCOC)c23)c1	10 ×10⁻⁶ cm/s
N#CN[C@H]1CCc2ccc(-c3ncnc4[nH]cc(-c5ccccc5)c34)cc21	2 ×10⁻⁶ cm/s
N#CN[C@H]1C[C@@H](NS(=O)(=O)c2cccc(C#N)c2)c2ccc(-c3ncnc4[nH]ccc34)cc21	6 ×10⁻⁶ cm/s

---

# assay name: GSH reactivity in phosphate buffer assessed as half life at 20 uM after 1 hr in presence of L-glutathione by LC-MS/MS analysis
# Assay type: physicochemical
# test parameters: phosphate buffer with L-glutathione
reported endpoint: half-life at 20 µM (h)

compound	qualifying sign	endpoint result
COCCc1c[nH]c2ncnc(-c3ccc4c(c3)N(C#N)CCO4)c12	>	3.17
C[C@]1(NC#N)CCc2ccc(-c3ncnc4[nH]ccc34)cc21	>	2
N#CN[C@H]1C[C@@H](NS(=O)(=O)c2cccc(C#N)c2)c2ccc(-c3ncnc4[nH]ccc34)cc21	=	0.4
N#CN[C@@H]1CCc2ccc(-c3ncnc4[nH]ccc34)cc21	=	1.35
C=CC(=O)Nc1cccc(-c2ncnc3[nH]cc(CCOC)c23)c1	=	0.933
CN(C#N)C1CCc2ccc(-c3ncnc4[nH]ccc34)cc21 (stereo unspecified)	>	3.17
